Reference source: patent US20140336216A1

assayed.target: GPR139 (Homo sapiens)
test.description: Calcium mobilization assay (FLIPR), GPR139 expressed in HEK293 cells
Assay type: cell-based
Design: expressed in transfected cells; host or cells: HEK293 (transient)
assay.context: HEK293; 300 μM; calcium mobilization as percentage of that observed for L-phenylalanine; read-out: % L-phenylalanine at 300 μM (average), calcium mobilization
observable: Emax at 300 µM (%)
Field format: number, assumed %, no unit text.

Recorded results for 5 compounds are shown here.
compound	Emax at 300 µM, %
N[C@@H](Cc1ccc(Cl)cc1)C(=O)O [4-Chloro-L-phenylalanine]	146
N[C@@H](Cc1ccccc1C(F)(F)F)C(=O)O [2-Trifluoromethyl-L-phenylalanine]	110
N[C@@H](Cc1cccc(Cl)c1)C(=O)O [3-Chloro-L-phenylalanine]	145
N[C@H](C(=O)O)C(c1ccccc1)c1ccccc1 [3,3-Diphenyl-L-alanine]	117
N[C@H](Cc1cccc(Br)c1)C(=O)O [3-Bromo-D-phenylalanine]	172

Prompt: // returns reported Emax at 300 µM for input N[C@@H](Cc1ccc(Cl)cc1Cl)C(=O)O [2,4-Dichloro-L-phenylalanine]
Completion: 122

Prompt: Please report the recorded Emax at 300 µM for N[C@H](Cc1ccccc1Br)C(=O)O [2-Bromo-D-phenylalanine] .
Completion: 135

Prompt: Quick one: Emax at 300 µM of Cc1ccc(C[C@H](N)C(=O)O)c(C)c1 [2,4-Dimethyl-L-phenylalanine] ?
Completion: 113

Prompt: Field request: Emax at 300 µM | item: Cc1cccc(C[C@@H](N)C(=O)O)c1 [3-Methyl-D-phenylalanine]
Completion: 150

Prompt: Consider the compound N[C@H](CCCc1ccccc1)C(=O)O [D-2-Amino-5-phenyl-pentanoic acid] and give its measured Emax at 300 µM.
Completion: 129

====

assayed.target: GPR139 (Homo sapiens, UniProt Q6DWJ6)
test.description: Calcium mobilization assay (FLIPR), GPR139 expressed in HEK293 cells
Format: cell-based
Parameters: expressed in transfected cells; host or cells: HEK293 (transient)
assay.context: HEK293; 300 μM; calcium mobilization as percentage of that observed for L-phenylalanine; read-out: % L-phenylalanine at 300 μM (average), calcium mobilization
Recorded Emax at 300 µM by entry
The response must be a number in % with no trailing unit.

Examples with answers:
chem.smiles	observable	reported.result
N[C@@H](Cc1ccc(C(F)(F)F)cc1)C(=O)O	Emax at 300 µM	150
N[C@H](Cc1ccc([N+](=O)[O-])cc1)C(=O)O	Emax at 300 µM	111
C[C@](N)(Cc1ccc(F)cc1)C(=O)O	Emax at 300 µM	125
N[C@@H](Cc1ccccc1Br)C(=O)O	Emax at 300 µM	168
CC(C)(C)c1ccc(C[C@H](N)C(=O)O)cc1	Emax at 300 µM	115
N[C@H](Cc1ccc(I)cc1)C(=O)O	Emax at 300 µM	125
Cc1ccccc1C[C@H](N)C(=O)O	Emax at 300 µM	134
N[C@H](Cc1ccc(F)cc1)C(=O)O	Emax at 300 µM	91

Prompt: Item N[C@@H](Cc1ccccc1F)C(=O)O has what recorded Emax at 300 µM?
Completion: 119

Prompt: Which Emax at 300 µM is reported for this compound? N[C@H](Cc1ccc(Cl)c(Cl)c1)C(=O)O
Completion: 149

Prompt: Fill in: Emax at 300 µM of N[C@@H](Cc1cccc(F)c1)C(=O)O is ___
Completion: 114

Prompt: For the compound shown here, Cc1ccccc1C[C@@H](N)C(=O)O , give the reported Emax at 300 µM.
Completion: 109

====

assayed.target: GPR139 (Homo sapiens, UniProt Q6DWJ6)
Sequence (Q6DWJ6 1-353): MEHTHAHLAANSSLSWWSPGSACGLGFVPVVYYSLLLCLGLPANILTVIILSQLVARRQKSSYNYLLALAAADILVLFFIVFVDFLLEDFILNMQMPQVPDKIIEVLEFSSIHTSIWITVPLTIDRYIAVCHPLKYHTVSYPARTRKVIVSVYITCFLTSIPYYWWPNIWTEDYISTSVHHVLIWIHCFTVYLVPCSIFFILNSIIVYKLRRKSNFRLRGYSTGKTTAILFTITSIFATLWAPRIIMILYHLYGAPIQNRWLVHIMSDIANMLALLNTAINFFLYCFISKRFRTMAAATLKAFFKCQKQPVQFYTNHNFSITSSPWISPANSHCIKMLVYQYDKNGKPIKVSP
test.description: Calcium mobilization assay (FLIPR), GPR139 expressed in HEK293 cells
Format: cell-based
Parameters: expressed in transfected cells; host or cells: HEK293 (transient)
assay.context: HEK293; 300 μM; calcium mobilization as percentage of that observed for L-phenylalanine; read-out: % L-phenylalanine at 300 μM (average), calcium mobilization
observable: Emax at 300 µM (%)
// units = %; emit number, no label

Look over these answered cases.
molecule	assayed.target	Emax at 300 µM, %
N[C@H](Cc1cccc([N+](=O)[O-])c1)C(=O)O [3-Nitro-D-Phenylalanin]	GPR139 (Homo sapiens, UniProt Q6DWJ6)	164
Cc1ccc(C[C@@H](N)C(=O)O)c(C)c1 [2,4-Dimethyl-D-phenylalanine]	GPR139 (Homo sapiens, UniProt Q6DWJ6)	101
N[C@@H](Cc1ccc(Cl)c(Cl)c1)C(=O)O [3,4-Dichloro-L-phenylalanine]	GPR139 (Homo sapiens, UniProt Q6DWJ6)	149
N[C@H](Cc1cccc(F)c1)C(=O)O [3-Fluoro-D-phenylalanine]	GPR139 (Homo sapiens, UniProt Q6DWJ6)	94

Prompt: Entry under review: Cc1cccc(C[C@H](N)C(=O)O)c1 [3-Methyl-L-phenylalanine] . Reported Emax at 300 µM?
Completion: 147

====

assayed.target: GPR139 (Homo sapiens, UniProt Q6DWJ6)
test.description: Calcium mobilization assay (FLIPR), GPR139 expressed in HEK293 cells
Type: cell-based
Design: expressed in transfected cells; host or cells: HEK293 (transient)
assay.context: HEK293; 300 μM; calcium mobilization as percentage of that observed for L-phenylalanine; read-out: % L-phenylalanine at 300 μM (average), calcium mobilization
The entries below come with measured Emax at 300 µM values attached.

chem.smiles	observable	reported.result
N[C@@H](Cc1cccc([N+](=O)[O-])c1)C(=O)O	Emax at 300 µM	131%

Prompt: May I ask what Emax at 300 µM has been recorded for N#Cc1cccc(C[C@H](N)C(=O)O)c1 ?
Completion: 115%

Prompt: Need Emax at 300 µM, item N[C@H](Cc1ccc(Cl)cc1)C(=O)O
Completion: 110%

Prompt: Form field: reported Emax at 300 µM of N[C@@H](Cc1cccc(Br)c1)C(=O)O
Completion: 167%

Prompt: Can you share its Emax at 300 µM? I mean this molecule: N[C@@H](Cc1ccc(I)cc1)C(=O)O
Completion: 116%

Prompt: Any idea what Emax at 300 µM was measured for N[C@H](Cc1ccc(F)c(F)c1)C(=O)O ?
Completion: 121%

Prompt: Record request: Emax at 300 µM value, item N[C@H](Cc1c(F)c(F)c(F)c(F)c1F)C(=O)O
Completion: 145%
